Kindly find below IC50 information for human IKK-β (Homo sapiens, UniProt O14920) taken from the literature.

A selection of reference data follows.
compound=CC(C)CCCOc1cccc(O)c1-c1cc(C2CCNCC2)c(CO)c(N)n1 measured_quantity=IC50 result="< 500 nM"
compound=N#Cc1c(-c2ccccc2C(=O)O)cc(-c2ccccc2O)nc1N measured_quantity=IC50 result="500 to 2000 nM"
compound=NC(=O)c1cnc(N)c2c1[nH]c1c(Cl)cccc12 measured_quantity=IC50 result="≤ 100 nM"
compound=NC(=O)Nc1sc(-c2ccc(/C=C/C[C@H](N)C(=O)OC3CCCC3)cc2Cl)cc1C(N)=O measured_quantity=IC50 result="< 1000 nM"
compound=CCc1cc(N2CCC(N)CC2)nc2sc(C(N)=O)c(N)c12 measured_quantity=IC50 result="< 1000 nM"
compound="NC(=O)c1sc2nc(N3CCC(NCC(O)c4ccc(-c5ccccc5)cc4)CC3)cc(C(F)(F)F)c2c1N (stereo not drawn)" measured_quantity=IC50 result="< 1000 nM"
compound=NC(=O)Nc1sc(-c2ccc(CN[C@H](C(=O)O)c3ccccc3)cc2)cc1C(N)=O measured_quantity=IC50 result="< 1000 nM"
compound="N#Cc1c(C2CCNC2)cc(-c2ccccc2O)nc1N (stereo not drawn)" measured_quantity=IC50 result="< 500 nM"

For the next question, use this compound.
Ask: Please state recorded IC50 (tested on human IKK-β (Homo sapiens, UniProt O14920)) of COCCNC(=O)c1cc2c(C3CCCNC3)cc(-c3c(O)cccc3OCC3CC3)nc2[nH]c1=O (stereo not drawn)
Sequence (O14920 whole entry): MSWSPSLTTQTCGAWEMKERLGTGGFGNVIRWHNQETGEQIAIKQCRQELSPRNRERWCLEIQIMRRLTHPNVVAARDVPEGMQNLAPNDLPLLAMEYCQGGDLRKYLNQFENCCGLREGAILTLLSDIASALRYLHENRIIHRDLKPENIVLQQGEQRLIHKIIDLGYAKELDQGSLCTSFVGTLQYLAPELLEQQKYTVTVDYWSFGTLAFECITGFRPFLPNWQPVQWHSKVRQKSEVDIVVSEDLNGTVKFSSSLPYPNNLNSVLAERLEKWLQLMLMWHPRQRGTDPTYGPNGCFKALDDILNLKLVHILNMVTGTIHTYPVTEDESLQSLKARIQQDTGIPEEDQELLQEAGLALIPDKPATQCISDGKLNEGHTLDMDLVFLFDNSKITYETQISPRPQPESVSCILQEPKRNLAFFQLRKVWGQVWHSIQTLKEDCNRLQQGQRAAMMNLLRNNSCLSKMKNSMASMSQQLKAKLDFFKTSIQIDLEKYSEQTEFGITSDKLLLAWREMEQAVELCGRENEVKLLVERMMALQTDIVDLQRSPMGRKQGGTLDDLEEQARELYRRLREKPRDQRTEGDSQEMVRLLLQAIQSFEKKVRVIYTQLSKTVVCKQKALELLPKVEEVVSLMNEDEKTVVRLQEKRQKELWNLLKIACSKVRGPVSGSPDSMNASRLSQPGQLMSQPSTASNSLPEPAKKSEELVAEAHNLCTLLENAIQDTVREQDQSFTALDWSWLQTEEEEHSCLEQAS
Reply: < 500 nM

---

Kindly find below IC50 information for human IKK-β (Homo sapiens, UniProt O14920) taken from the literature.

compound="N#Cc1c(C2CCCNC2)cc(-c2c(O)cccc2OCc2ccc(Cl)c(Cl)c2)nc1N (centres unmarked)" study_system="human IKK-β (Homo sapiens, UniProt O14920)" result="< 500 nM"
compound=COc1ccc(CSc2nnc(-c3ccnc(N)c3)o2)cc1F study_system="human IKK-β (Homo sapiens, UniProt O14920)" result="> 10000 nM"
compound=NC(=O)c1sc2nc(N3CCC(N)CC3)cc(C(=O)Nc3ccncc3)c2c1N study_system="human IKK-β (Homo sapiens, UniProt O14920)" result="< 1000 nM"
compound=Nc1nc(-c2c(O)cccc2OCC2CC2)cc(C2CCNCC2)c1CO study_system="human IKK-β (Homo sapiens, UniProt O14920)" result="< 500 nM"
compound="O=C(NC1CCCCCC1)c1cc2c(C3CCCNC3)cc(-c3c(O)cccc3OCC3CC3)nc2[nH]c1=O (centres unmarked)" study_system="human IKK-β (Homo sapiens, UniProt O14920)" result="< 500 nM"
compound=CC(C)C[C@H](NC/C=C/c1ccc(-c2cc(C(N)=O)c(NC(N)=O)s2)c(F)c1)C(=O)O study_system="human IKK-β (Homo sapiens, UniProt O14920)" result="< 1000 nM"
compound=N#Cc1c(-c2ccc(C(=O)NCCN3CCCCC3)cc2)cc(-c2ccccc2O)nc1N study_system="human IKK-β (Homo sapiens, UniProt O14920)" result="500 to 2000 nM"
compound=COCC(=O)Nc1cccc(-c2cc(-c3ccccc3O)nc(N)c2C#N)c1 study_system="human IKK-β (Homo sapiens, UniProt O14920)" result="500 to 2000 nM"

Ask: Fill blank: measured IC50 of the compound CCCc1cc(N2CCC(NCC(=O)N3CCC(O)CC3)CC2)nc2sc(C(N)=O)c(N)c12 is ____.
Reply: < 1000 nM

Ask: Fill blank: measured IC50 of the compound N#Cc1c(NCCN)cc(-c2ccccc2O)nc1N is ____.
Reply: < 500 nM
